Where these numbers come from: patent US20220259593A1

# Tested on: K562 CRISPRi cells
# Assay Remarks: Perturb-seq pooled growth measurement (sgRNA counts, growth phenotype γ, relative activity)
# Format: cell-based, human
# Assay Context: sequencing read counts; 10 days of growth (day twelve after transduction)
Property Measured: Perturb-seq pooled growth sgRNA counts, d10
Output spec: single numeric token, no unit.

Recorded results for 4 substances are shown here.
INPUT: Would you mind telling me what Perturb-seq pooled growth sgRNA counts, d10 value was observed for POLR1D_+_28196016.23-P1_08: sgRNA targeting POLR1D, GGGAAGCAGGGACCGACCGA, SEQ ID NO: 74 (listed as DNA, chemistry not fully specified) ?
OUTPUT: 1986

INPUT: Please answer likewise for CDC23_−_137548987.23-P1P2_11: sgRNA targeting CDC23, GACAGCCACCGGGACCACGG, SEQ ID NO: 101 (listed as DNA, chemistry not fully specified)
OUTPUT: 16682

INPUT: Please answer likewise for MTOR_+_11322547.23-P1P2_00: sgRNA targeting MTOR, GGGCAGGGGGCCTGAAGCGG, SEQ ID NO: 146 (listed as DNA, chemistry not fully specified)
OUTPUT: 3144

INPUT: Please answer likewise for RPS18_+_33239917.23-P1P2_00: sgRNA targeting RPS18, GCTGCGATGCCGCTGGATCA, SEQ ID NO: 40 (listed as DNA, chemistry not fully specified)
OUTPUT: 1535

***
INPUT: Would you mind telling me what Perturb-seq pooled growth sgRNA counts, d10 value was observed for EIF2S1_−_67827080.23-P1P2_02: sgRNA targeting EIF2S1, GAGCGCAGCGCACGCTGAGG, SEQ ID NO: 138 (listed as DNA, chemistry not fully specified) ?
OUTPUT: 2582
